Experiment: PROTAC subcutaneous pharmacokinetics in CD-1 mice
Type: in vivo
Details: male, plasma; CD-1 Mouse, 10 mg/kg SC dose, vehicle ELP-1; read-out: Plasma Exposure Cmax
Entries and their measured Cmax follow.
metric_name: Cmax (ng/mL)

record_smiles	unit_info	obs_value
Cc1ncsc1-c1ccc(CNC(=O)[C@@H]2C[C@@H](O)CN2C(=O)[C@@H](NC(=O)COCCOc2ccc(-c3ccc(C(=O)N[C@H]4C(C)(C)[C@H](Oc5ccc(C#N)c(Cl)c5)C4(C)C)cc3)cc2)C(C)(C)C)cc1	ng/mL	1530
Cc1ncsc1-c1ccc(CNC(=O)[C@@H]2C[C@@H](O)CN2C(=O)[C@@H](NC(=O)COCCCOCCN2CCC(c3ccc(N4C(=S)N(c5ccc(C#N)c(C(F)(F)F)c5)C(=O)C4(C)C)cc3)CC2)C(C)(C)C)cc1	ng/mL	180
